- system.name: RPS6KA2 KD1 (human) (UniProt Q15349)
- Sequence (Q15349 whole entry, looked up): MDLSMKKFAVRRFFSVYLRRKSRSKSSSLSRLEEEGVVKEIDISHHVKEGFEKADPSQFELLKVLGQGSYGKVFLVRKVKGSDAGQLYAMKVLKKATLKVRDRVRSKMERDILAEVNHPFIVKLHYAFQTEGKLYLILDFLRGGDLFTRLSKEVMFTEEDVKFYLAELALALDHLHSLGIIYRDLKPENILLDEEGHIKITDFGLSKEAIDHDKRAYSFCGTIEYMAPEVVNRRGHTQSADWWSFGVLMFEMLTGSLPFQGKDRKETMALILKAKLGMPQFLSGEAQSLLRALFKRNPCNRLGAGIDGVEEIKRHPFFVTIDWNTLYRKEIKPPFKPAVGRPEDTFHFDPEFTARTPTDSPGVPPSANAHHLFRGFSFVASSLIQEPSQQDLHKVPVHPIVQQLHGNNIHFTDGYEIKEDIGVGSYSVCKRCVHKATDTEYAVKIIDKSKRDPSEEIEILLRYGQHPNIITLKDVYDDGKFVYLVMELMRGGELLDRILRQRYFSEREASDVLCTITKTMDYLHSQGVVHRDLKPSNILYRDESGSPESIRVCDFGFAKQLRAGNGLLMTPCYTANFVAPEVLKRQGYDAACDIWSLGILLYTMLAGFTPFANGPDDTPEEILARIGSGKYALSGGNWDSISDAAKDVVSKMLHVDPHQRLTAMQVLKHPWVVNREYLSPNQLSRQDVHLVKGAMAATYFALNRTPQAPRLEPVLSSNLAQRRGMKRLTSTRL
- experiment.notes: split-luciferase competition binding
- experimental.setup: compound 10.0 µM
parameter: inhibition (%)

compound	value.observed
O=c1cc(N2CCOCC2)oc2c1ccc1ccccc12	0
Cc1ccc(-c2nn(C(C)(C)C)c3ncnc(N)c23)cc1	1
Nc1ncnc2[nH]nc(Nc3ccc(F)cc3)c12	0
CC1=C(O)C(=O)[C@@H]2OC2C1=O (stereo partly drawn)	0
O=C1c2ccccc2-c2n[nH]c3cccc1c23	0
O=C1NC(=O)C(c2ccccc2[N+](=O)[O-])=C1Nc1ccc(O)c(Cl)c1	0

A: Cn1cnc2c(NCc3ccccc3)nc(NCCO)nc21
B: NC(=O)c1ccc(-c2nc(-c3ccccn3)c(-c3ccc4c(c3)OCO4)[nH]2)cc1
## Task In terms of reported inhibition, does A or B have the smaller number? Answer with the label corresponding to your selection.
## Result A
(A: 0%, B: 3%)

###

- system.name: PRKX (human) (UniProt P51817)
- Sequence (P51817 whole entry, looked up): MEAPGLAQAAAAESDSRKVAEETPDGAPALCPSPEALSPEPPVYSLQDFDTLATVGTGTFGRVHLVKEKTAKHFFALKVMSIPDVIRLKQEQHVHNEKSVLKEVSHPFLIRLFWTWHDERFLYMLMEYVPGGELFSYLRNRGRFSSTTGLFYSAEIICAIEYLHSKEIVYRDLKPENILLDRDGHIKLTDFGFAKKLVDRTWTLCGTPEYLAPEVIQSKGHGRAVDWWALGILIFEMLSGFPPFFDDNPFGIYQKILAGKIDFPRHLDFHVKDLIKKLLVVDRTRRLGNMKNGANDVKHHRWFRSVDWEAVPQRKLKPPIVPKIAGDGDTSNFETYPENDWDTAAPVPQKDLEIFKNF
- experiment.notes: split-luciferase competition binding
- experimental.setup: compound 10.0 µM
parameter: inhibition (%)

In the examples that follow, each entry is paired with its recorded inhibition.
molecular.string	system.name	inhibition (%)
Cc1[nH]c(/C=C2\C(=O)Nc3ccc(S(=O)(=O)Cc4c(Cl)cccc4Cl)cc32)c(C)c1C(=O)N1CCC[C@@H]1CN1CCCC1	PRKX (human) (UniProt P51817)	7
O=C1NC(=O)c2cc(Nc3ccc(F)cc3)c(Nc3ccc(F)cc3)cc21	PRKX (human) (UniProt P51817)	8
O=c1cc(N2CCOCC2)oc2c1ccc1ccccc12	PRKX (human) (UniProt P51817)	0

I: O=C1c2ccccc2-c2n[nH]c3cccc1c23
II: COc1cc2c(Nc3ccc(NC(=O)c4ccccc4)cc3)ncnc2cc1OCCCN1CCOCC1
III: N#C/C(=C(/N)Sc1ccc(N)cc1)c1ccccc1C(F)(F)F
IV: O=C(c1ccc(Nc2nccc(-c3cc4ccccc4s3)n2)cc1)N1CCC(N2CCCC2)CC1
## Task Order by inhibition, ascending. Please respond with the labels ordered as the question requires.
## Result I, II, III, IV
(I: 0%, II: 7%, III: 11%, IV: 29%)

###

- system.name: SGK3 (human)
- experiment.notes: split-luciferase competition binding
- experimental.setup: compound 10.0 µM
parameter: inhibition (%)

molecular.string	system.name	readout.units	inhibition
NC(=O)c1sc(-c2ccsc2)cc1N	SGK3 (human)	%	0
CC(C)(C)n1nc(-c2cccc3ccccc23)c2c(N)ncnc21	SGK3 (human)	%	0
O=S(=O)(c1cccc2c(Cl)cccc12)N1CCCNCC1	SGK3 (human)	%	0
CN1CCC(Nc2ncc3ncnc(Nc4ccc(F)c(Cl)c4)c3n2)CC1	SGK3 (human)	%	0
Oc1ccc(-c2nc(-c3ccc(F)cc3)c(-c3ccncc3)[nH]2)cc1	SGK3 (human)	%	0

###

- system.name: DMPK (human)
- experiment.notes: split-luciferase competition binding
- experimental.setup: compound 10.0 µM
parameter: inhibition (%)

Consider the following illustrative entries.
molecule	system.name	readout.units	inhibition
COc1cc(CC2C(=O)OC[C@@H]2Cc2ccc(OC)c(OC)c2)ccc1O (some centres not stated)	DMPK (human)	%	0
CCN(CC)CCNC(=O)c1c(C)[nH]c(/C=C2\C(=O)Nc3ccc(F)cc32)c1C	DMPK (human)	%	0
Cc1ccccc1C(=O)c1ccc(Nc2ccc(Br)cc2N)cc1Cl	DMPK (human)	%	0

I: O=c1cc(N2CCOCC2)oc2c1ccc1ccccc12
II: COc1cc2nccc(Oc3ccc(NC(=O)Nc4ccc(F)cc4F)c(F)c3)c2cc1OC
## Task Which of these two has the smaller recorded inhibition: I or II ? Respond with the label that goes with your answer.
## Result I
(I: 0%, II: 13%)
